For each record, write down the corresponding TGI.
- Test system: NCI-H522 lung
- assay notes: NCI tumour cell line growth inhibition, 48 h

Consider the following illustrative entries.
[[record]]
compound = "COC(=O)C(=O)C(C(=O)C(=O)Nc1ccccc1C(N)=O)c1nc2ccc([N+](=O)[O-])cc2[nH]c1=O (stereo not given)"
observed_result = "> 100 µM"

[[record]]
compound = "Nc1c2ccccc2nc2nccnc12"
observed_result = "> 100 µM"

[[record]]
compound = "COc1cc2cc(Oc3ccc(NC(=O)Nc4ccc(F)c(C(F)(F)F)c4)cc3)c(C)nc2cc1OCCN1CCOCC1"
observed_result = "9.43 µM"

[[record]]
compound = "COC(=O)CCC(=O)C(CC(=O)OC)C(=O)CCC(=O)NCCc1ccccc1 (stereo not given)"
observed_result = "> 100 µM"


Item: CN1C[C@@H]2CC(=O)CC[C@@H]2C[C@H]1C#N | TGI: > 100 µM

Source listed as PubChem BioAssay (NCI).
